assay: NOVARTIS: Cytotoxicity against human hepatocellular carcinoma cell line (Huh7); format: toxicity, cell-based, Huh-7; details: Huh7 cells (hepatocellular carcinoma cell line)
testReadout: CC50

Guide cases for CC50, answers given:
# molecule, testReadout, measuredResult
data = [
    ("O=C1C(Nc2ccccc2)=C(n2nnc3ccccc32)C(=O)c2ccccc21", "CC50", "6.3 µM"),
    ("CN1CCc2c(sc3nc(SCc4ccc(Cl)cc4)n(-c4cccc(Cl)c4)c(=O)c23)C1", "CC50", "> 100 µM"),
    ("COc1cc([N+](=O)[O-])ccc1NC(=O)CN1CCN(C(=O)c2ccco2)CC1", "CC50", "> 100 µM"),
]

For the 4 molecules below, give their CC50 values.
1. Clc1ccc(-c2c[n+](-c3ccccc3)c3n2CCS3)cc1
2. C=CCN1Cc2ccc(C(=O)NCc3ccccc3)cc2N=C1c1ccc(F)cc1
3. CCCCCCN(C(=O)COCc1ccccc1)C(CC)c1nc2ccccc2c(=O)n1-c1ccc(F)c(Cl)c1 (stereo unspecified)
4. C=CCn1c(SCC(=O)c2cc(C)n(-c3ccccc3F)c2C)nc2sc3c(c2c1=O)CCCC3

Ans.
1. > 100 µM
2. > 12.6 µM
3. > 10 µM
4. > 10 µM
